Target: NLRP3 (Homo sapiens)
Sequence (Q96P20 whole entry): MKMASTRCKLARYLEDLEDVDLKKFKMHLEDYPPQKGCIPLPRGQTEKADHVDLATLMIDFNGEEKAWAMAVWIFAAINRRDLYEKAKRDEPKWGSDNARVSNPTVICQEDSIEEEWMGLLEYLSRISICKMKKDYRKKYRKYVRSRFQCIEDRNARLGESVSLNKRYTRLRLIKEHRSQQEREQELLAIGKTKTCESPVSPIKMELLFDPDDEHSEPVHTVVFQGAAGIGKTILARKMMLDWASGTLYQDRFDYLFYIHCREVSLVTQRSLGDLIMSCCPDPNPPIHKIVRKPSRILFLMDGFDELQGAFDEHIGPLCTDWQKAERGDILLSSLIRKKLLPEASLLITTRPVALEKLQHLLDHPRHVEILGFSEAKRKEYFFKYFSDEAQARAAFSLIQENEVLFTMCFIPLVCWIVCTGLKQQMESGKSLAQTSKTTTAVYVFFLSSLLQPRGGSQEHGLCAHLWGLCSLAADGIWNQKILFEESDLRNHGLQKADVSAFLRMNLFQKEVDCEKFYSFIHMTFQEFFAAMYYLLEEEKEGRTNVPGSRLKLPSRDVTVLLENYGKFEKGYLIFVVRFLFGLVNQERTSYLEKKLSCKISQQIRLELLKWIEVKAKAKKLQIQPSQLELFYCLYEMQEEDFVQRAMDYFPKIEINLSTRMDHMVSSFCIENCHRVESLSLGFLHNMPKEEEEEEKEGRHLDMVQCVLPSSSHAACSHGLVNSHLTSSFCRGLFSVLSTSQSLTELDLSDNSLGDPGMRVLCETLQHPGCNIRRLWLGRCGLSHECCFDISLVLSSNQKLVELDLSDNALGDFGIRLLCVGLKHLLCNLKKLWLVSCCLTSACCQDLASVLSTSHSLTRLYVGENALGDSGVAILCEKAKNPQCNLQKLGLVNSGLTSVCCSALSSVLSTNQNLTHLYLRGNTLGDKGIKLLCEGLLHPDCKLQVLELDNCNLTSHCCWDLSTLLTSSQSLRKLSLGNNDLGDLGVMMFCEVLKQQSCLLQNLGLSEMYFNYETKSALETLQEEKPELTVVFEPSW
Assay: THP-1 cells pyroptosis assay (LPS + nigericin, resazurin read-out)
Assay type: cell-based
Design: Seed THP-1 cells (25,000 cells/well) containing 1.0 μg/ml LPS; host or cells: THP-1 cells, LPS-primed, nigericin-stimulated
Conditions: 1 μg/ml LPS, 5 μM nigericin, NLRP3 inhibitory activity
pIC50: −log10 of the molar value.
reported-property: pIC50

molecular-string: O=C(Nc1c2c(cc3c1CCC3)CCC2)NS(=O)(=O)c1ccn(Cc2ncco2)n1
reported-property: pIC50
test-result: 6.80 to 7.40
--
molecular-string: CN(Cc1nccn1C)C(=O)c1cc(S(=O)(=O)NC(=O)Nc2c3c(cc4c2CCC4)CCC3)nn1C
reported-property: pIC50
test-result: 6.80 to 7.40
--
molecular-string: O=C(Nc1c2c(cc3c1CCC3)CCC2)NS(=O)(=O)c1ccn(-c2cccnc2)n1
reported-property: pIC50
test-result: 5.59 to 6.19
--
molecular-string: CN(Cc1nccs1)C(=O)c1cc(S(=O)(=O)NC(=O)Nc2c3c(cc4c2CCC4)CCC3)nn1C
reported-property: pIC50
test-result: 6.19 to 6.80
--
molecular-string: CN(C(=O)c1cc(S(=O)(=O)NC(=O)Nc2c3c(cc4c2CCC4)CCC3)nn1C)c1nccs1
reported-property: pIC50
test-result: 6.19 to 6.80
--
molecular-string: O=C(Nc1c2c(cc3c1CCC3)CCC2)NS(=O)(=O)c1ccn(-c2ccccn2)n1
reported-property: pIC50
test-result: 5.59 to 6.19
--
molecular-string: CN(Cc1ccnn1C)C(=O)c1cc(S(=O)(=O)NC(=O)Nc2c3c(cc4c2CCC4)CCC3)nn1C
reported-property: pIC50
test-result: 5.59 to 6.19
--
molecular-string: O=C(Nc1c2c(cc3c1CCC3)CCC2)NS(=O)(=O)c1ccn(-c2nccs2)n1
reported-property: pIC50
test-result: 5.59 to 6.19

Query: Name the recorded pIC50 for `O=C(Nc1c2c(cc3c1CCC3)CCC2)NS(=O)(=O)c1ccn(Cc2ncccn2)n1` .
Reply: 5.59 to 6.19

---

Quick reference: IC50 of the listed items.
Target: NLRP3 (Homo sapiens)
Experiment: Human whole blood IL1β release assay (LPS + nigericin, AlphaLisa IL-1β)
Assay type: cell-based
Set-up: Plate out 80 μl of whole blood containing 1 μg/ml of LPS; from tissue; host or cells: human whole blood from healthy donors (Li-heparin), LPS-primed, nigericin-stimulated
Settings: 1 μg/ml LPS, 10 μM nigericin, IL-1β release, read-out: HWB IC50

Answered cases to consult:
compound: CN(Cc1nccs1)C(=O)c1cc(S(=O)(=O)NC(=O)Nc2c3c(cc4c2CCC4)CCC3)nn1C [Example 7]
IC50: 1600 to 3200 nM
--
compound: CN(Cc1nccn1C)C(=O)c1cc(S(=O)(=O)NC(=O)Nc2c3c(cc4c2CCC4)CCC3)nn1C [Example 8]
IC50: 800 to 1600 nM
--
compound: O=C(Nc1c2c(cc3c1CCC3)CCC2)NS(=O)(=O)c1ccn(Cc2ncco2)n1 [Example 2]
IC50: 3200 to 10000 nM

Query: Request - read-out IC50 | tested on NLRP3 (Homo sapiens) | compound Cn1ccnc1Cn1ccc(S(=O)(=O)NC(=O)Nc2c3c(cc4c2CCC4)CCC3)n1 [Example 3]
Reply: 400 to 800 nM
